src = ChEMBL document CHEMBL1141644

- experimentSummary: Cmax in BALB/c mouse at 30 mg/kg, po
- Type: ADME, organism-based
- Parameters: dose 30 mg/kg, route oral
- testSettings: in vivo
measurementName: Cmax (ng/mL)
State just the number; it will be interpreted in ng/mL.

IN: Find the recorded Cmax belonging to CC(=O)N1C2C=C(CN3[C@@H]4CC[C@H]3C[C@H](Nc3ccc5ccc(OC(C)C)cc5n3)C4)CC1CCC2 and report it.
OUT: 1800

* * *

- experimentSummary: Intrinsic clearance in human liver microsomes at 0.5 uM
- Assay type: ADME, Microsome
- testSettings: liver microsomes
Entries and their microsomal CLint at 0.5 µM
Give a bare numeral; the unit µL/min/mg is implied.

Worked examples, 2 molecules total:
CC(=O)N1C2C=C(CN3CCC(Nc4ccc5cc(C(F)(F)F)ccc5n4)CC3)CC1CCC2 (stereo not drawn) : 11
CC(=O)N1C2C=C(CN3CCC(Nc4cnc5ccccc5n4)CC3)CC1CCC2 (stereo not drawn) : 2

IN: # lookup: microsomal CLint at 0.5 µM of COc1cc(F)c2ccc(NC3CCN(CC4=CC5CCCC(C4)N5C(C)=O)CC3)nc2c1 (stereo not drawn)
OUT: 8

* * *

Some molecules, each annotated with its measured logD.
- experimentSummary: Partition coefficient, log D at pH 7.4
- Assay type: physicochemical
- testSettings: octanol/water
Reply briefly: the number, and no unit.

CC(=O)N1C2C=C(CN3CCC(Nc4ccc5cc(Cl)ccc5n4)CC3)CC1CCC2 (centres undefined) : 2.7

IN: // query logD value for entry CC(=O)N1C2C=C(CN3CCC(Nc4ccc5c(F)cc(OC(C)C)cc5n4)CC3)CC1CCC2 (centres undefined)
OUT: 3.1

IN: Next: CC(=O)N1C2C=C(CN3CCC(Nc4ccc5cc(C(F)(F)F)ccc5n4)CC3)CC1CCC2 (centres undefined)
OUT: 3.3

IN: Also check CC(=O)N1C2C=C(CN3CCC(Nc4cnc5ccccc5n4)CC3)CC1CCC2 (centres undefined)
OUT: 2.4

IN: Next up: CC(=O)N1C2C=C(CN3CCC(Nc4ccc5c(C(F)(F)F)cc(C(F)(F)F)nc5n4)CC3)CC1CCC2 (centres undefined)
OUT: 4.1

IN: Next molecule up: CC(=O)N1C2C=C(CN3CCC(Nc4ccc5cc(OC(F)(F)F)ccc5n4)CC3)CC1CCC2 (centres undefined)
OUT: 3.9

IN: What do you have for CC(=O)N1C2C=C(CN3CCC(Nc4ccc5ccc(OC(C)C)cc5n4)CC3)CC1CCC2 (centres undefined) ?
OUT: 3.4

IN: And for CC(=O)N1C2C=C(CN3CCC(N(C)c4nc5ccccc5s4)CC3)CC1CCC2 (centres undefined) ?
OUT: 3.3
